system: OVCAR8; experiment: drug sensitivity score (DSS2) on cancer cell count; higher = more sensitive; extreme values may be limits of the assay; settings: co-cultured fibroblast: BJHTERT; 72 h
measurementName: drug sensitivity score (DSS)
A number alone suffices; assume DSS.

INPUT: Hi! What's the reported drug sensitivity score for CC(C)n1nc(-c2ccc3oc(N)nc3c2)c2c(N)ncnc21 [Sapanisertib] on OVCAR8?
OUTPUT: 11

INPUT: Hi! What's the reported drug sensitivity score for COc1cccc2c1C(=O)c1c(O)c3c(c(O)c1C2=O)C[C@@](O)(C(=O)CO)C[C@@H]3O[C@H]1C[C@H](N)[C@@H](O)[C@H](C)O1 [Epirubicin] on OVCAR8?
OUTPUT: 14.7

INPUT: Hi! What's the reported drug sensitivity score for Oc1ncnc2[nH]ncc12 [Allopurinol] on OVCAR8?
OUTPUT: 0

INPUT: Hi! What's the reported drug sensitivity score for CC[C@]12C=CCN3CC[C@@]4(c5cc([C@@]6(C(=O)OC)C[C@@H]7C[C@@H](C(C)(F)F)CN(Cc8c6[nH]c6ccccc86)C7)c(OC)cc5N(C)[C@H]4[C@@](O)(C(=O)OC)[C@@H]1OC(C)=O)[C@@H]32 [Vinflunine] on OVCAR8?
OUTPUT: 6.9

INPUT: Hi! What's the reported drug sensitivity score for CC(C)NC(=O)COc1cccc(-c2nc(Nc3ccc4[nH]ncc4c3)c3ccccc3n2)c1 [KD025] on OVCAR8?
OUTPUT: 5

INPUT: Hi! What's the reported drug sensitivity score for COC(=O)c1ccc2c(c1)NC(=O)/C2=C(\Nc1ccc(N(C)C(=O)CN2CCN(C)CC2)cc1)c1ccccc1 [Nintedanib] on OVCAR8?
OUTPUT: 9.8

INPUT: Hi! What's the reported drug sensitivity score for CN(C)Cc1c(C(=O)NCCOc2ccc(C(=O)NO)cc2)oc2ccccc12 [Abexinostat] on OVCAR8?
OUTPUT: 25.3

INPUT: Hi! What's the reported drug sensitivity score for COc1cc(NS(C)(=O)=O)ccc1Nc1c2ccccc2nc2ccccc12 [Amsacrine] on OVCAR8?
OUTPUT: 20.1

INPUT: Hi! What's the reported drug sensitivity score for CC1(C)CCC(c2ccc(Cl)cc2)=C(CN2CCN(c3ccc(C(=O)NS(=O)(=O)c4ccc(N[C@H](CCN5CCOCC5)CSc5ccccc5)c(S(=O)(=O)C(F)(F)F)c4)cc3)CC2)C1 [Navitoclax] on OVCAR8?
OUTPUT: 7.5

INPUT: Hi! What's the reported drug sensitivity score for FC(F)(F)c1ccc(/C=C/c2nc(COc3ccc(CCCCn4ccnn4)cc3)co2)cc1 [Mubritinib] on OVCAR8?
OUTPUT: 16.9

INPUT: Hi! What's the reported drug sensitivity score for C[C@H](Nc1ncnc2[nH]cnc12)c1cc2ccc(F)cc2nc1-c1ccccn1 [AMG319] on OVCAR8?
OUTPUT: 0

INPUT: Hi! What's the reported drug sensitivity score for COc1ccc(C[C@H](NC(=O)[C@H](C)NC(=O)CN2CCOCC2)C(=O)N[C@@H](Cc2ccccc2)C(=O)C2(C)CO2)cc1 (stereo in doubt) [ONX-0914] on OVCAR8?
OUTPUT: 8.4

INPUT: Hi! What's the reported drug sensitivity score for CN1CCN(C(=O)c2ccc3cc(CCNc4ncnc5ccc(C#N)cc45)ccc3c2)CC1 [Senexin B] on OVCAR8?
OUTPUT: 1.1

INPUT: Hi! What's the reported drug sensitivity score for N#Cc1ccc(C(c2ccc(C#N)cc2)n2cncn2)cc1 [Letrozole] on OVCAR8?
OUTPUT: 0

INPUT: Hi! What's the reported drug sensitivity score for CCS(=O)(=O)N1CCN(c2ccc(Nc3ncc(C(N)=O)c(NC4CC4)n3)cc2)CC1 [Cerdulatinib] on OVCAR8?
OUTPUT: 0
